Source: ChEMBL document CHEMBL1135070

Tested on: HUVEC
Test: Anti-proliferative effect on human umbilical vein endothelial cells (HUVEC) induced by basic fibroblast growth factor (bFGF)
Format: functional, cell-based
value-type: IC50 (nM)
Report the value in nM with no unit label.

Memo: CCN(CC)c1nc(-c2cc(OC)c(OC)c(OC)c2)cc(-c2cc(OC)c(OC)cc2OC)n1 , reported IC50: 561
